Test: Pharmacokinetic comparison after a single oral dose of 150 mg S-(+)-Ibuprofen, free acid tablet vs D-Lysinat (Tabelle 5)
Conditions: human, in vivo, po, 150 mg
measured-quantity: AUC (ng·h/mL)
Could you give me the number in ng·h/mL? Just the number is fine.

AUC measured on CC(C)Cc1ccc([C@H](C)C(=O)O)cc1 [S-(+)-Ibuprofen, freie Säure, S-(+)-Ibuprofen] = 44500

* * *

Test: Pharmacokinetic comparison after a single oral dose of 150 mg S-(+)-Ibuprofen, free acid tablet vs D-Lysinat (Tabelle 5)
Conditions: human, in vivo, po, 150 mg
measured-quantity: tmax (h)
Could you give me the number in h? Just the number is fine.

tmax measured on CC(C)Cc1ccc([C@H](C)C(=O)O)cc1 [S-(+)-Ibuprofen, freie Säure, S-(+)-Ibuprofen] = 2
